target: mouse RORγ (Mus musculus, UniProt P51450); construct: mouse, NM_011281.2 and from Ile251 to Lys516; expressed in transfected cells; host or cells: CHO cells (transient co-transfection with pG5-Luc reporter); assay: Luciferase reporter gene assay of inhibitory effect against RORγ transcriptional activity (GAL4-mRORγ plasmid in CHO cells); format: cell-based; conditions: read-out: LUC EC50 mRORg
Sequence (P51450 251-516): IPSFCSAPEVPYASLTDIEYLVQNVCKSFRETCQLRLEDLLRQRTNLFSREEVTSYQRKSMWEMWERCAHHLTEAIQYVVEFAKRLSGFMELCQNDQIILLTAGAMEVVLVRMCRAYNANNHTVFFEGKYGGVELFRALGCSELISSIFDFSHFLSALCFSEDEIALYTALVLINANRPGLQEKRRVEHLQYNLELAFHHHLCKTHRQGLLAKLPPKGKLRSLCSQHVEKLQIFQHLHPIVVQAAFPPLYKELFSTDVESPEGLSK
pEC50: −log10 of the molar value.
Exercise: for every item that follows, state its recorded pEC50.

## Task Entry Cc1ccc(NC(=O)[C@H]2CN(S(=O)(=O)C(F)F)C[C@@H]2c2nnc([C@H]3C[C@@H](CC(C)(C)C)C3)n2C2CC2)c(C)c1 , system mouse RORγ (Mus musculus, UniProt P51450): what pEC50 was measured?
## Result > 5.52

## Task Entry Cc1ccc(NC(=O)C[C@H](CCO)c2nnc(C3CC4(CCC(F)(F)CC4)C3)n2C2CC2)c(C)c1 , system mouse RORγ (Mus musculus, UniProt P51450): what pEC50 was measured?
## Result > 5.52

## Task Entry Cc1ccc(NC(=O)C[C@H](CCC(=O)O)c2noc([C@H]3C[C@@H](CC(C)(C)C(=O)O)C3)c2C2CC2)c(Cl)c1 , system mouse RORγ (Mus musculus, UniProt P51450): what pEC50 was measured?
## Result < 5.52

## Task Entry Cc1cnc(NC(=O)C[C@H](CCC(=O)O)c2noc([C@H]3C[C@@H](CC(C)(C)C)C3)c2C2CC2)c(C)c1 , system mouse RORγ (Mus musculus, UniProt P51450): what pEC50 was measured?
## Result > 5.52

## Task Entry Cc1ncc(NC(=O)C[C@H](CCC(=O)O)c2noc([C@H]3C[C@@H](CC(C)(C)C)C3)c2C2CC2)c(C)n1 , system mouse RORγ (Mus musculus, UniProt P51450): what pEC50 was measured?
## Result > 5.52

## Task Entry Cc1ccc(NC(=O)[C@H]2CN(C)C[C@@H]2c2nnc([C@H]3C[C@@H](CC(C)(C)C)C3)n2C2CC2)c(C)c1 , system mouse RORγ (Mus musculus, UniProt P51450): what pEC50 was measured?
## Result > 5.52
